- Test system: MDA-MB-435
- ASSAY METHOD TEXT: NCI tumour cell line growth inhibition, 48 h
Activity calls are given as the source filed them. Cut-off read from the data, not from the text of the source: active = GI50 up to about 1.1 µM and inactive = higher.
Would you mind answering with one of these outcomes? active, inactive

Input line: // outcome(item) with item = O=C(O)CCCc1ccc2ccc3ccccc3c2c1
Output line: inactive

Input line: What about this compound? CC(=O)[O-].[Zn+].c1ccc(/C(=N\Nc2ccccn2)c2ccccn2)cc1
Output line: active

Input line: Next compound: COC(=O)C1CCC(=O)N1C(c1ccc2c(c1)OCO2)c1cc(OC)c(OC)c(OC)c1 (stereo unspecified)
Output line: inactive

Input line: Same lookup for O=C1CCCc2ccc3c(c21)CC1(Cc2ccccc2C1)C3 , please.
Output line: inactive

Input line: Lookup Cc1n[nH]c(C(F)(F)F)c1/N=N/N(C)C
Output line: inactive

* * *

- Tested on: OVCAR-3
- ASSAY METHOD TEXT: NCI tumour cell line growth inhibition, 48 h
Calls of active or inactive are those of the source. Rule as the data show it: active = GI50 up to about 1.1 µM and inactive = higher.
MEASURED PARAMETER: GI50

> print(dat)
                                   compound  measured.parameter  experimental.result
1  O=C(NCCOC(=O)CCCCCCCCC(=O)OCCNC(=O)NC(=O)c1cn(Cc2ccccc2)c(=O)[nH]c1=O)NC(=O)c1cn(Cc2ccccc2)c(=O)[nH]c1=O                GI50  > 100 µM (inactive)
2  COc1c(C(=O)CC2c3c(cc4oc(C)cc(=O)c4c3OC)OC(=N)C2c2nc3ccccc3[nH]2)c(O)c(OC)c2occc12 (centres undefined)                GI50  > 100 µM (inactive)
3  O=C1/C(=N/N=C(c2ccccc2)c2ccccc2)c2ccccc2-c2ccccc21                GI50   40.8 µM (inactive)

# next compound below
Input line: Recorded GI50 for CC[C@@H]1CN(C)[C@H]2Cc3c([nH]c4ccccc34)C(=O)C[C@H]1C2C(=O)OC (some centres undefined) , please?
Output line: > 100 µM (inactive)

* * *

Entries and their measured GI50 follow.
- System: SK-MEL-28
- ASSAY METHOD TEXT: NCI tumour cell line growth inhibition, 48 h
Calls of active or inactive are those of the source. Cut-off read from the data, not from the text of the source: active = GI50 up to about 1.1 µM and inactive = higher.

> print(dat)
                                   compound  measured.parameter  experimental.result
1        O=C1c2sc(-c3ccc(F)cc3)cc2-n2cccc21                GI50   69.8 µM (inactive)
2           Cc1c(C)c2ccc3oc4ccccc4c3c2oc1=O                GI50  > 100 µM (inactive)
3      N=C(c1ccc2ccccc2c1)c1ccccc1Cc1ccccc1                GI50   62.4 µM (inactive)
4  CCOP(=O)(OCC)C(Cc1c[nH]c2ccccc12)C(=O)O (stereo not given)                GI50  > 100 µM (inactive)
5  CC(C)(C)c1ccc(-n2c3nc(=O)n(-c4ccccc4CO)c(=O)c-3cc3ccccc32)cc1                GI50   38.7 µM (inactive)

Input line: Bench note: what GI50 did CCN(CC)CCO/N=C1\CC[C@H]2[C@@H]3CC=C4C[C@@H](O)CC[C@]4(C)[C@H]3CC[C@]12C show?
Output line: 15.7 µM (inactive)

Input line: Follow-up item: Cc1ccc([N+](=O)[O-])cc1S(=O)(=O)Nc1ccc(C2=NN(c3ccc([N+](=O)[O-])cc3[N+](=O)[O-])C(c3ccccc3)C2)cc1 (stereo not given)
Output line: 34.5 µM (inactive)

Input line: Param item: O=c1c([Se]c2coc3ccccc3c2=O)coc2ccccc12
Output line: 17.1 µM (inactive)

Input line: What would you report for CN(CCN(C)CCN(C)C(=O)Cc1ccc(Cl)c(Cl)c1)CCN1CCCC1 ?
Output line: 1.94 µM (inactive)

Input line: Could you do the same for COc1ccc(-c2cc(=O)c3c(OC)c(O)c(OC)cc3o2)cc1 , please?
Output line: > 100 µM (inactive)

Input line: Try this compound next: Cc1ccc(Nc2nnc(-c3ccc4c(c3)OCO4)o2)c(C)c1
Output line: > 100 µM (inactive)

Input line: Note, next up: O=P1(C(O)/C=C/c2ccccc2)N(Cc2ccccc2)[C@@H]2CCCC[C@H]2N1Cc1ccccc1 (stereo not given in full)
Output line: 11.2 µM (inactive)

* * *

Reported GI50 values are given for each entry in this list.
- Test system: IGROV-1
- ASSAY METHOD TEXT: NCI tumour cell line growth inhibition, 48 h
The source made the active and inactive calls. Cut-off read from the data, not from the text of the source: active = GI50 up to about 1.1 µM and inactive = higher. *1 amine or outer side, *2 acyl side, *3 side chain or, on linkers, in order; H or OH if unused. Where a SMILES comes first, the peptide text is derived from it. Bridges are numbered along the chain shown (N, C = ends). Roman numbers before positions name the chains, in order. [ ]: non-standard residue; d: D form. Actinocin(1to9) = Cc1c2oc3c(C)ccc(C(=O)[*:2])c3nc-2c(C(=O)[*:1])c(N)c1=O; NMeV = CN[CH](C(=O)O)C(C)C; Sar = CNCC(=O)O

Record excerpt, results attached:
COMPOUND	GI50
O=c1[nH]c2cc(C(F)(F)F)ccc2nc1C(F)(F)F	29.3 µM (inactive)
CC[P+](C)(C)c1ccccc1	> 100 µM (inactive)

Input line: What value of measured GI50 is listed for CC(=O)c1nccc2c1c(C)nc1ccccc12 ?
Output line: 70 µM (inactive)

Input line: What do you have for CN(C)C(=S)SCC(N)=O ?
Output line: > 100 µM (inactive)

Input line: Also check O=P1(C(O)/C=C/c2ccccc2)N(Cc2ccccc2)[C@@H]2CCCC[C@H]2N1Cc1ccccc1 (some centres not stated)
Output line: 3.41 µM (inactive)

Input line: And COc1ccc(CC2NC(=O)C(NC(=O)c3c4nc5c(C(=O)NC6C(=O)NC(Cc7ccc(OC)cc7)C(=O)N7CCCC7C(=O)N(C)CC(=O)N(C)C(C(C)C)C(=O)OC6C)ccc(C)c5oc-4c(C)c(=O)c3N)C(C)OC(=O)C(C(C)C)N(C)C(=O)CN(C)C(=O)C3CCCN3C2=O)cc1 (configuration not stated) (I: TY(Me)P[Sar][NMeV] / II: TY(Me)P[Sar][NMeV]; ester I:1-I:C, II:1-II:C; linker I:N-II:N via Actinocin(1to9); configuration not given here) ?
Output line: < 0.001 µM (active)

Input line: Would you mind doing COc1c(C(=O)CC2c3c(cc4oc(C)cc(=O)c4c3OC)OC(=N)C2c2nc3ccccc3[nH]2)c(O)c(OC)c2occc12 (configuration not stated) as well?
Output line: > 100 µM (inactive)

* * *

- Test system: BT-549
- ASSAY METHOD TEXT: NCI tumour cell line growth inhibition, 48 h
Activity calls are given as the source filed them. No stated cut-off is given here; in the data, active = GI50 up to about 1.1 µM and inactive = higher.
MEASURED PARAMETER: GI50

Input line: What does the data say about its GI50? Entry: O=C(NO)c1cccc(OCc2ccc(Br)cc2)c1
Output line: 7.71 µM (inactive)

Input line: Would you kindly repeat that for O=P1(C(O)/C=C/c2ccccc2)N(Cc2ccccc2)[C@@H]2CCCC[C@H]2N1Cc1ccccc1 (stereo not given in full) ?
Output line: 15 µM (inactive)

Input line: Also need NC1CC(=O)c2cscc21 (stereo not given) , thanks.
Output line: 58.9 µM (inactive)

Input line: Now this one: COc1cc(N(CCC#N)CCC#N)ccc1C(/N=N/c1ccccc1C)=N\NC(=O)c1ccc(C)cc1
Output line: 98.2 µM (inactive)

Input line: What about this molecule? CCN(CC)c1ccc2cc(C(=O)Nc3nc(C45CC6CC(CC(C6)C4)C5)cs3)c(=O)oc2c1
Output line: > 100 µM (inactive)

* * *

- Test system: MDA-MB-435
- ASSAY METHOD TEXT: NCI tumour cell line growth inhibition, 48 h
The source made the active and inactive calls. Cut-off read from the data, not from the text of the source: active = GI50 up to about 1.1 µM and inactive = higher. Starred links: 1 amine or outer side, 2 acyl side, 3 side chain; linkers in the order of their positions; H or OH if unused. Positions of bridges follow the written chain, without caps; N, C: chain ends. Non-standard residues stand in square brackets, D forms with d. Residues, ends and D or L forms follow the SMILES beside them. ξ: configuration not given here. X11 = CCC(C)C(N[*:1])C(O)CC(=O)O[C@H](C(=O)C(C)C(=O)[*:2])C(C)C; X10 = O=C([C@@H]1CC(O)CN1[*:1])[*:2]; NMeY = CN[C@@H](Cc1ccc(O)cc1)C(=O)O; ξNMeL = CNC(CC(C)C)C(=O)O; ξT = CC(O)C(N)C(=O)O
Field 'call' accepts label 1 (active), label 0 (inactive)

Examples from the recorded data:
COMPOUND	CLASS NAME
CCC(C)C1NC(=O)C(NC(=O)C(CC(C)C)N(C)C(=O)[C@@H]2CC(O)CN2)C(C)OC(=O)[C@H](Cc2ccc(OC)cc2)N(C)C(=O)[C@@H]2CCCN2C(=O)[C@H](CC(C)C)NC(=O)C(C)C(=O)[C@H](C(C)C)OC(=O)CC1O (stereo not given in full) (H-[X10][ξNMeL][ξT][X11]LP[NMeY](Me); ester 3-C)	label 1
O=C(O)C(Cc1ccccc1)Cc1ccccc1	label 0

Input line: Answer briefly: the call reported for Nc1nc2cc(Cl)ccc2n1N in this assay.
Output line: label 0

Input line: Would you kindly repeat that for COc1cc(CNNC(N)=S)cc(OC)c1OC ?
Output line: label 0

Input line: // same read-out, input: N#Cc1c(N)nc2c(C#N)c(N)cc3c2c1Oc1ccccc1-3
Output line: label 0
